B1: MGC16075 (parent)
chain: AGSRQALSFEVPPCNYDPEKWIQ

variants of: B1; assay: protein stability index of a GFP-peptide fusion (GPS, HEK-293T) (PSI 1-6); higher = more stable; conditions: c terminus: native;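 note: lentivirally expressed fusions sorted by FACS into six bins by GFP to DsRed ratio, PSI derived from sequencing read proportions per bin multiplied by bin number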

>  <mutation>
E10M

>  <protein stability index>
2.56

$$$$
>  <mutation>
I22W

>  <protein stability index>
3.22

$$$$
>  <mutation>
C14I

>  <protein stability index>
1.59

$$$$
>  <mutation>
I22G

>  <protein stability index>
5.11

$$$$
>  <mutation>
P18C

>  <protein stability index>
2.3

$$$$
>  <mutation>
S3T

>  <protein stability index>
1.79

$$$$
>  <mutation>
G2S

>  <protein stability index>
1.75

$$$$
>  <mutation>
K20W

>  <protein stability index>
3.58

$$$$
>  <mutation>
D17I

>  <protein stability index>
2.17

$$$$
>  <mutation>
E19S

>  <protein stability index>
2.2

$$$$
>  <mutation>
E10Y

>  <protein stability index>
1.75

$$$$
>  <mutation>
G2V

>  <protein stability index>
1.97

$$$$
>  <mutation>
A1F

>  <protein stability index>
3.97

$$$$
>  <mutation>
P12D

>  <protein stability index>
1.97

$$$$
>  <mutation>
V11R

>  <protein stability index>
2

$$$$
>  <mutation>
V11N

>  <protein stability index>
1.68

$$$$
>  <mutation>
F9N

>  <protein stability index>
3.75

$$$$
>  <mutation>
Q23Y

>  <protein stability index>
2

$$$$
>  <mutation>
A6L

>  <protein stability index>
3.71

$$$$
>  <mutation>
L7D

>  <protein stability index>
2.45

$$$$
>  <mutation>
P12C

>  <protein stability index>
2.41

$$$$
>  <mutation>
Q5H

>  <protein stability index>
1.82

$$$$
>  <mutation>
D17K

>  <protein stability index>
3.23

$$$$
>  <mutation>
W21A

>  <protein stability index>
2.33

$$$$
>  <mutation>
K20R

>  <protein stability index>
1.98

$$$$
>  <mutation>
G2P

>  <protein stability index>
1.94

$$$$
>  <mutation>
K20N

>  <protein stability index>
3.71

$$$$
>  <mutation>
S3K

>  <protein stability index>
2.32

$$$$
>  <mutation>
R4Y

>  <protein stability index>
1.22

$$$$
>  <mutation>
N15D

>  <protein stability index>
1.78

$$$$
>  <mutation>
F9W

>  <protein stability index>
2.5

$$$$
>  <mutation>
I22P

>  <protein stability index>
4.72

$$$$
>  <mutation>
Q23P

>  <protein stability index>
4.37

$$$$
>  <mutation>
G2M

>  <protein stability index>
2.88

$$$$
>  <mutation>
R4A

>  <protein stability index>
2.66

$$$$

The reported measurements were obtained from the supplement of paper PMC10567573.
